src = patent US9266813B2

Tested on: Hep3B cells
method description: MTT assay, antiproliferation on Hep3B cells
Type: cell-based
experimental conditions: Homo sapiens; Hep3B cells, MTT, 48 hours, Example 19 text; read-out: IC50 after 48 hours of treatment (FIG. 2)
observed property: pIC50
Bear in mind: pIC50 is minus log10 of a mol/L concentration; give just that figure.

Data point: COc1cc(/C=C/c2ccc(OC(=O)C(C)(CO)CO)cc2)cc(OC)c1 [Compound 2-4] ; pIC50 = 4.30

----------
method description: Water solubility assay
Assay type: physicochemical
experimental conditions: read-out: Water solubility, Content
observed property: solubility (µg/mL)
Use µg/mL as the unit, but write only the number.

Illustrative cases are given below, each with its answer.
>>> reported_value("COc1cc(/C=C/c2ccc(OC(=O)C(C)(CO)CO)cc2)cc(OC)c1")
18
>>> reported_value("COc1ccc(/C=C/c2cc(OC(=O)C(C)(CO)CO)cc(OC(=O)C(C)(CO)CO)c2)cc1")
337
>>> reported_value("CC(CO)(CO)C(=O)Oc1cc(/C=C/c2ccc(O)cc2)cc(OC(=O)C(C)(CO)CO)c1")
455

Data point: CC(CO)(CO)C(=O)Oc1ccc(/C=C/c2cc(OC(=O)C(C)(CO)CO)cc(OC(=O)C(C)(CO)CO)c2)cc1 ; solubility = 372

Data point: COc1cc(O)cc(/C=C/c2ccc(OC(=O)C(C)(CO)CO)cc2)c1 ; solubility = 35.8

Data point: CC(CO)(CO)C(=O)Oc1ccc(/C=C/c2cc(O)cc(O)c2)cc1 ; solubility = 52.9
